# assayed-target: FGFR2b alpha IIIb antigen (UniProt P21802)
# experiment-description: SPR (Biacore), antibody on chip, FGFR2b alpha IIIb antigen
Readings of Kd for the listed binders

| binder | value-unit | Kd |
| --- | --- | --- |
| 2B 1.3.12 (antibody, V domains shown, the duobody scheme implies IgG1 with K409R or F405L; also called Antibody D; GE) VH: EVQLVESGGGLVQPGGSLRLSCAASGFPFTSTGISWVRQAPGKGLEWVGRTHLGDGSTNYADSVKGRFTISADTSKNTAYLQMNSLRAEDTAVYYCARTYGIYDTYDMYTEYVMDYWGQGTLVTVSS VL: DIQMTQSPSSLSASVGDRVTITCRASQDVDTSLAWYKQKPGKAPKLLIYSASFLYSGVPSRFSGSGSGTDFTLTISSLQPEDFATYYCQQSTGHPQTFGQGTKVEIK | nM | 0.99 |
| 12433 (antibody, V domains shown, the duobody scheme implies IgG1 with K409R or F405L; also called Antibody F; N12433) VH: QVQLVQSGAEVKKPGESLKISCKGSGYSFTNYYIHWVRQMPGKGLEWMGAIYPDNSDTTYSPSFQGQVTISADKSISTAYLQWSSLKASDTAMYYCARGADIWGQGTLVTVSS VL: DIQMTQSPSSLSASVGDRVTITCRASQDIDPYLSNWYQQKPGKAPKLLIYDASNLQSGVPSRFSGSGSGTDFTLTISSLQPEDFATYYCQQTTSHPYTFGQGTKVEIK | nM | 7.5 |
| 10164 (antibody, V domains shown, the duobody scheme implies IgG1 with K409R or F405L; also called Antibody C; N10164) VH: QVQLVESGGGLVKPGGSLRLSCAASGFTFSSYALSWVRQAPGKGLEWVGRIRSKIDGGTTDYAAPVKGRFTISRDDSKNTLYLQMNSLKTEDTAVYYCARDRSPSDSSAFAIWGQGTLVTVSS VL: DIELTQPPSVSVSPGQTASITCSGDNLGSQYVDWYQQKPGQAPVLVIYDDNDRPSGIPERFSGSNSGNTATLTISGTQAEDEADYYCQSWDSLSVVFGGGTKLTVLG | nM | 1.7 |
| M048-D01 (antibody, V domains shown, Parental bivalent monospecific antibody; also called Antibody A; Bayer) VH: EVQLLESGGGLVQPGGSLRLSCAASGFTFSSYAMSWVRQAPGKGLEWVSAISGSGTSTYYADSVKGRFTISRDNSKNTLYLQMNSLRAEDTAVYYCARVRYNWNHGDWFDPWGQGTLVTVSS VL: QSVLTQPPSASGTPGQRVTISCSGSSSNIGNNYVSWYQQLPGTAPKLLIYENYNRPAGVPDRFSGSKSGTSASLAISGLRSEDEADYYCSSWDDSLNYWVFGGGTKLTVLG | nM | 16 |
